Kindly state Kd for each of the entries shown.
Target: T1, truncated hTfR1 of SEQ ID NO:122 (human, UniProt P02786 122-760)
T1 construct: also called human TfR1; Human TfR1
T1 sequence (P02786 other isoform, or with tags, fused parts or gaps limits assumed): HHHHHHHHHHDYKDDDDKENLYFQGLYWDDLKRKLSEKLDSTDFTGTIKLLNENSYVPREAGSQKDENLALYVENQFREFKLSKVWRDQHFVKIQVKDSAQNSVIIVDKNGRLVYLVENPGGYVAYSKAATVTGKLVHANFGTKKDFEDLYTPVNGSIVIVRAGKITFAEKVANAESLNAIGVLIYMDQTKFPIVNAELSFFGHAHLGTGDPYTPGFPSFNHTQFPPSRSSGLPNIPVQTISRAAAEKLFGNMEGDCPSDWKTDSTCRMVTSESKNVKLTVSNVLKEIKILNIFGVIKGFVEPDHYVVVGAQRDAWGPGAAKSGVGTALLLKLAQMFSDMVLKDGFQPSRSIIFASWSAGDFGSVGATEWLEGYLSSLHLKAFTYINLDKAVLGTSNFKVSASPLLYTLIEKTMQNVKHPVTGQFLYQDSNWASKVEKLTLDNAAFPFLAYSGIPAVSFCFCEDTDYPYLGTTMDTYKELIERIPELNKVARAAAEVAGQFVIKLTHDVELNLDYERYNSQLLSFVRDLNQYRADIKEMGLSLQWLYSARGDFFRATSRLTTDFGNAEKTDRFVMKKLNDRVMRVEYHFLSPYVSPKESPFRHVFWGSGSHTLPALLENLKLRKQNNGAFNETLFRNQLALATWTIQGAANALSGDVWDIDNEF
Test: SPR, TfR1 amine-coupled, Fab injected, 1:1 fit
Experimental: Binding of the purified Fabs to human and cynomolgus TfR1 was evaluated using either SPR (FIG. 44) or indirect ELISA (FIG. 45). For SPR, a Biacore 8K instrument (Cytiva) was used. […] The Fabs were injected over the chip using a 2-fold dilution series in four steps starting at 100 nM. The interaction was measured using the single cycle kinetics method with a contact time of 120 s at a flow rate of 30 μl/min followed by a dissociation time of 1000 s. […]
Answers are plain numbers, in nM.

For each of the binders below, note its Kd.
1. h26D3 variant LC5 Fab (Fab, V domains shown, Single-mutant His-tagged Fab; also called Y97A) VH: EVQLVQSGAEVKKPGSSVKVSCKASGYIFTDYNMDWVRQAPGQGLEWIGDINPDYDTTSYNEKFKGRATLTVDKSTSTAYMELSSLRSEDTAVYYCARGGYSGSSYYHPMDYWGQGTLVTVSS VL: DIQMTQSPSSVSASVGDRVTITCKSSQSLLYSTNQKNYLAWYQQKPGKAPKLLIYWASTRESGVPSRFSGSGSGTDFTLTISSLQPEDFATYYCQQAFIYPRTFGQGTKVEIK
2. h26D3 variant HC4 Fab (Fab, V domains shown, Single-mutant His-tagged Fab; also called D50A) VH: EVQLVQSGAEVKKPGSSVKVSCKASGYIFTDYNMDWVRQAPGQGLEWIGAINPDYDTTSYNEKFKGRATLTVDKSTSTAYMELSSLRSEDTAVYYCARGGYSGSSYYHPMDYWGQGTLVTVSS VL: DIQMTQSPSSVSASVGDRVTITCKSSQSLLYSTNQKNYLAWYQQKPGKAPKLLIYWASTRESGVPSRFSGSGSGTDFTLTISSLQPEDFATYYCQQYFIYPRTFGQGTKVEIK
3. h26D3 variant HC10 Fab (Fab, V domains shown, Single-mutant His-tagged Fab; also called Y106A) VH: EVQLVQSGAEVKKPGSSVKVSCKASGYIFTDYNMDWVRQAPGQGLEWIGDINPDYDTTSYNEKFKGRATLTVDKSTSTAYMELSSLRSEDTAVYYCARGGYSGSSAYHPMDYWGQGTLVTVSS VL: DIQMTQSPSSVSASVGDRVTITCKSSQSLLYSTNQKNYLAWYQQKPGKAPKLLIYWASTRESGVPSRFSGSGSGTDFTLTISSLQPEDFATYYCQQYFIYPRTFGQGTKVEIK
4. h26D3 variant LC6 Fab (Fab, V domains shown, Single-mutant His-tagged Fab; also called Y100A) VH: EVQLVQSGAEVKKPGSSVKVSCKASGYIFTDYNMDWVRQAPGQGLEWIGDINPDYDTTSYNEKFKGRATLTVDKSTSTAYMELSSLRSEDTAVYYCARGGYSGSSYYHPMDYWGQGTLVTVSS VL: DIQMTQSPSSVSASVGDRVTITCKSSQSLLYSTNQKNYLAWYQQKPGKAPKLLIYWASTRESGVPSRFSGSGSGTDFTLTISSLQPEDFATYYCQQYFIAPRTFGQGTKVEIK

Key:
240
5.1
9.2
8.5
